Molecular target: T1, extracellular domain of the IL-4Rα (IL-4 binding protein) (UniProt P24394 26-232, limits assumed, biotinylated at Cys-206)
T1 construct: extracellular domain; Immobilised on the streptavidin-coated matrix of the biosensor through biotin at Cys-206; also called IL4BP; IL-4 specific receptor
T1 sequence (looked up): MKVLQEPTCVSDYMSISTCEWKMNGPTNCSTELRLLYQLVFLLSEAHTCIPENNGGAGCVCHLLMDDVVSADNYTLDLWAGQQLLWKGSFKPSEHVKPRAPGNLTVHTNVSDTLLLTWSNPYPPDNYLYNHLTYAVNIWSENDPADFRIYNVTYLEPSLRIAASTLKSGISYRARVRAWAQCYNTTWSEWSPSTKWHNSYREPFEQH
Assay: biosensor (BIA2000), IL4BP biotinylated at Cys-206 on a streptavidin matrix, 25 C
metric: Kd
Write the numeric value and append its unit.

Given Ac-RMKQLEDKVERLLSRNYRLENEVARLKKLVG-NH2 (not fully specified, Synthetic peptide derived from the GCN4 leucine zipper, designed to form a non-covalent parallel coiled-coil dimer) [Model 2] , respond with its Kd.
4.08 mM
